Origin of values: paper PMC9120017

ASSAY_SYSTEM: mouse TMEM16A mutant Y598A (Mus musculus, UniProt Q8BHY3, Y598A)
Construct: expressed in transfected cells; host or cells: HEK293T
Sequence (Q8BHY3 whole entry Y598A): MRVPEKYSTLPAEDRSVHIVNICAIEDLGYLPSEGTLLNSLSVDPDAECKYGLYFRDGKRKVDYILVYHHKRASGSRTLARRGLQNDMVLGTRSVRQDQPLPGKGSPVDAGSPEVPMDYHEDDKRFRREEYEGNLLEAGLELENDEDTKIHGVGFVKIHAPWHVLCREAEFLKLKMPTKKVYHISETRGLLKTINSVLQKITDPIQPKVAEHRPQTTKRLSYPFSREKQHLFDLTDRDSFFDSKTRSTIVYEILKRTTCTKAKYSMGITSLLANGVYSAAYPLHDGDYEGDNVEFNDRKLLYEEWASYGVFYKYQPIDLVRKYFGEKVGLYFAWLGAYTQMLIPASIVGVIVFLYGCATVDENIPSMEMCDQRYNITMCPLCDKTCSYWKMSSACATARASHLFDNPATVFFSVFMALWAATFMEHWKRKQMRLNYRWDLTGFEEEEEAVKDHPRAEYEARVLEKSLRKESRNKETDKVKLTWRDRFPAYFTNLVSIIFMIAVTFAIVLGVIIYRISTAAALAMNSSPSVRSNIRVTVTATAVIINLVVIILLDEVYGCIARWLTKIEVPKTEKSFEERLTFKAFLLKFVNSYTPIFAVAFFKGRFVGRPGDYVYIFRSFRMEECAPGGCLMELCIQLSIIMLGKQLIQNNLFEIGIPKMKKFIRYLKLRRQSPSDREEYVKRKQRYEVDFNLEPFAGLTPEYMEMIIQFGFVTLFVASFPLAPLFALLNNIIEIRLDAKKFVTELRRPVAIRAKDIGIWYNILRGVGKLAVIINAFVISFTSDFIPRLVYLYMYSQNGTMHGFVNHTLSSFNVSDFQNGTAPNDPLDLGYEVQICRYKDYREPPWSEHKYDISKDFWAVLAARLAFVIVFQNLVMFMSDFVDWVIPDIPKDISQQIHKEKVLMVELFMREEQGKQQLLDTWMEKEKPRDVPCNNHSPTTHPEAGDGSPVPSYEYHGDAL
EXPERIMENT_NOTES: Inside-out patch recording of 1PBC block, mutant Y598A
Format: cell-based
TEST_SETTINGS: -60 mV; 2 µM Ca2+
pIC50: −log10 of the molar value.

TEST_SMILES	ASSAY_SYSTEM	pIC50
N#Cc1c(C(F)(F)F)cc(O)n2c1nc1ccccc12	mouse TMEM16A mutant Y598A (Mus musculus, UniProt Q8BHY3, Y598A)	5.05

----------
ASSAY_SYSTEM: mouse TMEM16A mutant G558P (Mus musculus, UniProt Q8BHY3, G558P)
Construct: expressed in transfected cells; host or cells: HEK293T
Sequence (Q8BHY3 whole entry G558P): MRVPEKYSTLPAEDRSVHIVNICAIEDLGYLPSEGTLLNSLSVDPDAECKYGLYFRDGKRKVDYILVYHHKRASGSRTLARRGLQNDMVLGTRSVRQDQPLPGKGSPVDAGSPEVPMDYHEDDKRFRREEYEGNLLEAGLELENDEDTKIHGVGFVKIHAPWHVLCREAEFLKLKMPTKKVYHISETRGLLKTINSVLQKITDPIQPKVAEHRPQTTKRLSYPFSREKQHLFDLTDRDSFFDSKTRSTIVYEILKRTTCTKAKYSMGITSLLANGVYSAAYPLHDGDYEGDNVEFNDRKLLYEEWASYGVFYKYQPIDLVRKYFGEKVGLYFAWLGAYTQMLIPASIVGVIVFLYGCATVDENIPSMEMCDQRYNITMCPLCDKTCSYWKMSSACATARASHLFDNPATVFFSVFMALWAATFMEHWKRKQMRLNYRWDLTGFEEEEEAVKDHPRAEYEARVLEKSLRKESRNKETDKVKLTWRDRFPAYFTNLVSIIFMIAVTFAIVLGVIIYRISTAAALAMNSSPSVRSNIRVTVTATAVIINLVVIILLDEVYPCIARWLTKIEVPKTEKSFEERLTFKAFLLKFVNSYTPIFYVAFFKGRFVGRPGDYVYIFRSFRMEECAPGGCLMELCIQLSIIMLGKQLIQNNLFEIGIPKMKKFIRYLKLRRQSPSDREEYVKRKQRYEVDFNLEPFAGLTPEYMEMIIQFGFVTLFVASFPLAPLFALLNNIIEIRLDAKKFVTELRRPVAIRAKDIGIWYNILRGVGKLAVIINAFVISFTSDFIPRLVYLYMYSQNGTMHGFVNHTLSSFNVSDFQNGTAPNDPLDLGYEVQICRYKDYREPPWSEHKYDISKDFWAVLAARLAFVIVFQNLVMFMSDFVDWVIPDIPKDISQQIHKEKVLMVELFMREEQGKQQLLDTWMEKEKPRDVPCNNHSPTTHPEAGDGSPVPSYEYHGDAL
EXPERIMENT_NOTES: Inside-out patch recording of 1PBC block, mutant G558P
Assay type: cell-based
TEST_SETTINGS: 140 mV; 15 µM Ca2+

TEST_SMILES	IC50 (µM)
N#Cc1c(C(F)(F)F)cc(O)n2c1nc1ccccc12	3.86
